# protocol text: Mouse pharmacokinetic study (intravenous and oral)
# Type: in vivo
# conditions: oral administration 10 mpk

compound	Area under the concentration-time curve, nM·h
O=C(O)C[C@H](NC(=O)C1CCN(C(=O)C2CCCC2)CC1)C(=O)COc1c(F)c(F)cc(F)c1F	1708
CC(C)(C)c1ccccc1NC(=O)C(=O)N1CCC(C(=O)N[C@@H](CC(=O)O)C(=O)COc2c(F)c(F)cc(F)c2F)CC1	3657
O=C(O)C[C@H](NC(=O)C1CCN(C(=O)OC2CCCC2)CC1)C(=O)COc1c(F)c(F)cc(F)c1F	4180
C[C@H](NC(=O)C(=O)Nc1ccccc1C(C)(C)C)C(=O)N[C@@H](CC(=O)O)C(=O)COc1c(F)c(F)cc(F)c1F [IDN-6556, reference compound]	197

---

# protocol text: Mouse pharmacokinetic study (intravenous and oral)
# Type: in vivo
# conditions: Examples compared to reference compound IDN-6556

compound	in vivo exposure (in words)
O=C(O)C[C@H](NC(=O)C1CCN(C(=O)OC2CCCC2)CC1)C(=O)COc1c(F)c(F)cc(F)c1F	significantly improved
O=C(O)C[C@H](NC(=O)C1CCN(C(=O)C2CCCC2)CC1)C(=O)COc1c(F)c(F)cc(F)c1F	significantly improved
CC(C)(C)c1ccccc1NC(=O)C(=O)N1CCC(C(=O)N[C@@H](CC(=O)O)C(=O)COc2c(F)c(F)cc(F)c2F)CC1	significantly improved
C[C@H](NC(=O)C(=O)Nc1ccccc1C(C)(C)C)C(=O)N[C@@H](CC(=O)O)C(=O)COc1c(F)c(F)cc(F)c1F [IDN-6556, reference compound]	low

---

log10(EC50) listing for selected compounds.
# Test system: Anti-Fas-induced Jurkat cells
# protocol text: Anti-Fas-induced apoptosis of Jurkat cells in vitro (Caspase 3 substrate Ac-DEVD-AMC fluorescence)
# Assay type: cell-based
# conditions: Homo sapiens; Jurkat Clone E6-1, Anti-Fas 50 ng/mL, 24 hours, Ac-DEVD-AMC 10 μM
property: log10(EC50) (log10 of the value in nM)

compound	log10(EC50)
Cc1ccc(C)c(CNC(=O)C(=O)N2CCC(C(=O)N[C@@H](CC(=O)O)C(=O)COc3c(F)c(F)cc(F)c3F)CC2)c1 [Example 95]	1.52
CC(C)(C)c1ccccc1NC(=O)C(=O)N1CC[C@H](C(=O)N[C@@H](CC(=O)O)C(=O)COc2c(F)c(F)cc(F)c2F)C2CCCCC21 (stereo partly shown) [Example 18]	2.75
O=C(O)C[C@H](NC(=O)C1CCN(C(=O)NCc2ccccc2)CC1)C(=O)COc1c(F)c(F)cc(F)c1F [Example 78]	1.56
CC(C)(C)c1ccccc1NC(=O)C(=O)N1CC[C@@H](C(=O)N[C@@H](CC(=O)O)C(=O)COc2c(F)c(F)cc(F)c2F)C2CCCCC21 (stereo partly shown) [Example 19]	2.35
O=C(O)C[C@H](NC(=O)C1CCN(C(=O)N2CCCC2)CC1)C(=O)COc1c(F)c(F)cc(F)c1F [Example 89]	0.95
O=C(O)C[C@H](NC(=O)C1CCN(C(=O)C(=O)Nc2cc(Cl)ccc2C(F)(F)F)CC1)C(=O)COc1c(F)c(F)cc(F)c1F [Example 88]	1.53
CC(C)(C)c1ccccc1NC(=O)C(=O)N1CC=CC[C@@H](C(=O)N[C@@H](CC(=O)O)C(=O)COc2c(F)c(F)cc(F)c2F)C1 [Example 12]	1.72
CC(C)(C)c1ccccc1NC(=O)C(=O)N1CCOC(C(=O)N[C@@H](CC(=O)O)C(=O)COc2c(F)c(F)cc(F)c2F)C1 (stereo partly shown) [Example 8]	2.09
CC(C)(C)c1ccccc1NC(=O)C(=O)N1CCOC[C@H](C(=O)N[C@@H](CC(=O)O)C(=O)COc2c(F)c(F)cc(F)c2F)C1 [Example 124]	1.46
CC(C)(C)c1ccccc1NC(=O)C(=O)N1CCCC[C@](C)(C(=O)N[C@@H](CC(=O)O)C(=O)COc2c(F)c(F)cc(F)c2F)C1 [Example 111]	1.36
O=C(O)C[C@H](NC(=O)[C@@H]1CCCN(C(=O)C2CCCC2)C1)C(=O)COc1c(F)c(F)cc(F)c1F [Example 26]	1.10
O=C(O)C[C@H](NC(=O)C1CCN(C(=O)OCc2cc(Cl)ccc2Cl)CC1)C(=O)COc1c(F)c(F)cc(F)c1F [Example 96]	1.72
CC(C)(C)c1ccccc1NC(=O)C(=O)N1CCCC[C@@H](C(=O)N[C@@H](CC(=O)O)C(=O)COc2c(F)c(F)cc(F)c2F)C1 (single isomer, unassigned) [Example 10]	1.62

---

# Test system: Anti-Fas-induced Jurkat cells
# protocol text: Anti-Fas-induced apoptosis of Jurkat cells in vitro (Caspase 3 substrate Ac-DEVD-AMC fluorescence)
# Assay type: cell-based
# conditions: Homo sapiens; Jurkat Clone E6-1, Anti-Fas 50 ng/mL, 24 hours, Ac-DEVD-AMC 10 μM
pEC50: −log10 of the molar value.
pEC50 listing for selected molecules.
property: pEC50

molecule	property	obs value
O=C(O)C[C@H](NC(=O)[C@@H]1CCCN(C(=O)Oc2ccccc2)C1)C(=O)COc1c(F)c(F)cc(F)c1F	pEC50	7.67
CC(C)OC(=O)N1CCC[C@@H](C(=O)N[C@@H](CC(=O)O)C(=O)COc2c(F)c(F)cc(F)c2F)C1	pEC50	7.84
CC(C)(C)c1ccccc1NC(=O)C(=O)N1C[C@H](C(=O)N[C@@H](CC(=O)O)C(=O)COc2c(F)c(F)cc(F)c2F)Cc2ccccc21	pEC50	6.38
O=C(O)C[C@H](NC(=O)[C@@H]1CCCN(C(=O)NC2CCCC2)C1)C(=O)COc1c(F)c(F)cc(F)c1F	pEC50	7.24
Cc1ccc(Cl)c(OC(=O)N2CCC(C(=O)N[C@@H](CC(=O)O)C(=O)COc3c(F)c(F)cc(F)c3F)CC2)c1	pEC50	7.75
O=C(O)C[C@H](NC(=O)C1CCN(C(=O)NC2CCCC2)CC1)C(=O)COc1c(F)c(F)cc(F)c1F	pEC50	7.59
CC(C)(C)c1ccccc1NC(=O)C(=O)N1CCOC[C@@H](C(=O)N[C@@H](CC(=O)O)C(=O)COc2c(F)c(F)cc(F)c2F)C1	pEC50	7.41
CC(C)(C)c1ccccc1NC(=O)C(=O)N1CCCCC[C@H](C(=O)N[C@@H](CC(=O)O)C(=O)COc2c(F)c(F)cc(F)c2F)C1	pEC50	7.18
CC(C)(C)c1ccccc1NC(=O)C(=O)N1CCCC[C@H](C(=O)N[C@@H](CC(=O)O)C(=O)COc2c(F)c(F)cc(F)c2F)C1 (single isomer, unassigned)	pEC50	7.18
O=C(O)C[C@H](NC(=O)C1CCN(S(=O)(=O)c2ccccc2)CC1)C(=O)COc1c(F)c(F)cc(F)c1F	pEC50	6.02
O=C(O)C[C@H](NC(=O)C1CCN(c2nc3cc(F)ccc3o2)CC1)C(=O)COc1c(F)c(F)cc(F)c1F	pEC50	7.53
O=C(O)C[C@H](NC(=O)C1CCN(C(=O)c2cccnc2)CC1)C(=O)COc1c(F)c(F)cc(F)c1F	pEC50	7.99
CC(C)(C)c1ccccc1NC(=O)C(=O)N1C[C@@H](C(=O)N[C@@H](CC(=O)O)C(=O)COc2c(F)c(F)cc(F)c2F)Cc2ccccc21	pEC50	6.54
Cc1ccc(C)c(CCNC(=O)C(=O)N2CCC(C(=O)N[C@@H](CC(=O)O)C(=O)COc3c(F)c(F)cc(F)c3F)CC2)c1	pEC50	7.36
CC(C)(C)c1ccccc1NC(=O)C(=O)N1CCCC[C@@](C)(C(=O)N[C@@H](CC(=O)O)C(=O)COc2c(F)c(F)cc(F)c2F)C1	pEC50	6.78
CC(C)[C@H]1CC[C@H](C)C[C@@H]1OC(=O)N1CCC(C(=O)N[C@@H](CC(=O)O)C(=O)COc2c(F)c(F)cc(F)c2F)CC1	pEC50	7.02
O=C(O)C[C@H](NC(=O)[C@@H]1COCCN(C(=O)c2cc(-c3ccccc3Cl)on2)C1)C(=O)COc1c(F)c(F)cc(F)c1F	pEC50	8.03
O=C(O)C[C@H](NC(=O)C1CCN(C(=O)C(=O)NCC2CCCC2)CC1)C(=O)COc1c(F)c(F)cc(F)c1F	pEC50	7.42
O=C(O)C[C@H](NC(=O)C1CCN(c2noc3ccccc23)CC1)C(=O)COc1c(F)c(F)cc(F)c1F	pEC50	7.46
O=C(O)C[C@H](NC(=O)C1CCN(C(=O)c2ccncc2)CC1)C(=O)COc1c(F)c(F)cc(F)c1F	pEC50	7.62
O=C(O)C[C@H](NC(=O)C1CCN(c2nc3ccccc3o2)CC1)C(=O)COc1c(F)c(F)cc(F)c1F	pEC50	7.62
O=C(O)C[C@H](NC(=O)C1CC2(CCN(C(=O)C3CCCC3)CC2)C1)C(=O)COc1c(F)c(F)cc(F)c1F	pEC50	7.76
O=C(O)C[C@H](NC(=O)[C@H]1COCCN(C(=O)c2cc(-c3ccccc3Cl)on2)C1)C(=O)COc1c(F)c(F)cc(F)c1F	pEC50	7.79
CN(C(=O)C(=O)N1CCC(C(=O)N[C@@H](CC(=O)O)C(=O)COc2c(F)c(F)cc(F)c2F)CC1)c1ccccc1C(C)(C)C	pEC50	7.19
CC(C)(C)c1ccccc1NC(=O)C(=O)N1CCCCC[C@@H](C(=O)N[C@@H](CC(=O)O)C(=O)COc2c(F)c(F)cc(F)c2F)C1	pEC50	7.34
CC(C)OC(=O)N1CCC(C(=O)N[C@@H](CC(=O)O)C(=O)COc2c(F)c(F)cc(F)c2F)CC1	pEC50	7.63
O=C(O)C[C@H](NC(=O)C1CC2CCC(C1)N2C(=O)OCc1ccccc1)C(=O)COc1c(F)c(F)cc(F)c1F (stereo partly shown)	pEC50	6.56
O=C(O)C[C@H](NC(=O)C1CN(C(=O)OCc2ccccc2)CCO1)C(=O)COc1c(F)c(F)cc(F)c1F (stereo partly shown)	pEC50	7.30
